Target: Estrogen receptor (Mus musculus) (UniProt O08537+P19785)
Sequence (O08537 whole entry, looked up): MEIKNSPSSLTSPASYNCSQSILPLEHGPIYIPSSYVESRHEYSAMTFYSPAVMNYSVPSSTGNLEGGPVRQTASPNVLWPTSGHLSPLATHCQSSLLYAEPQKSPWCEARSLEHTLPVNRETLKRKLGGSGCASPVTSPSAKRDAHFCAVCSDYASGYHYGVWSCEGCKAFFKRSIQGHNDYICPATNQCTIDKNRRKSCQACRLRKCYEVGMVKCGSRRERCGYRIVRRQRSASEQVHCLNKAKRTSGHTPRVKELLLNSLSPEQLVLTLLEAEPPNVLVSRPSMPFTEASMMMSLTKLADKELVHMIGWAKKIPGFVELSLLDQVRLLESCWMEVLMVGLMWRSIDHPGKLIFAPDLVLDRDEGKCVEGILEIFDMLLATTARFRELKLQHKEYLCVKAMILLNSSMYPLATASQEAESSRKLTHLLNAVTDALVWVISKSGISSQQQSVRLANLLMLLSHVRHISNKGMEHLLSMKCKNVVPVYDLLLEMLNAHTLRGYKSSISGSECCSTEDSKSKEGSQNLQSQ
Sequence (P19785 whole entry, looked up): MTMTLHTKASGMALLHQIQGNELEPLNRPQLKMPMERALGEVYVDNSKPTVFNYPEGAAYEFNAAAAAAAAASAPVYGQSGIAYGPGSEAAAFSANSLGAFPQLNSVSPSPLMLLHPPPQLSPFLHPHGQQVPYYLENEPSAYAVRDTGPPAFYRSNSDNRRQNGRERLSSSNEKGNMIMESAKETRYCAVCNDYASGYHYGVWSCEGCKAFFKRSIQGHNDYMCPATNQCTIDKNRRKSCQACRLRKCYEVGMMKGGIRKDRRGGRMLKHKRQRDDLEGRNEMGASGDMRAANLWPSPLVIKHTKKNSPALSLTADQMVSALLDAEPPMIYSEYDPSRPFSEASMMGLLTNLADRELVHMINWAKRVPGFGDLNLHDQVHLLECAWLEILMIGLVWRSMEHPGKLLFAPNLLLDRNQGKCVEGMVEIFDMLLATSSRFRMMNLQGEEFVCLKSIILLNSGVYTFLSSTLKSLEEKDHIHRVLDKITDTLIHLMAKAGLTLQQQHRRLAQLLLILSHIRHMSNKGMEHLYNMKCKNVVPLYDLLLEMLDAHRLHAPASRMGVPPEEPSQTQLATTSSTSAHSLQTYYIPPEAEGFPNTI
Experiment: Estrogenic activity in uterotrophic assay in mice at 1000 ug/day
Format: functional
Endpoint: Effect (mg 100g-1)
Write down the numeric answer in mg 100g-1 and omit the unit.

Look over these answered cases.
CCC(c1ccc(O)cc1F)C(CC)c1ccc(O)cc1F (stereo not given) :: 30.5
CCC(c1ccc(O)cc1C)C(CC)c1ccc(O)cc1C (stereo not given) :: 32.6

State, in one line, measured Effect of CCC(c1ccc(O)c(C)c1)C(CC)c1ccc(O)c(C)c1 (stereo not given)
34

State, in one line, measured Effect of CCC(c1ccc(O)c(N)c1)C(CC)c1ccc(O)c(N)c1 (stereo not given)
45.6

State, in one line, measured Effect of CCC(c1ccc(O)c(F)c1)C(CC)c1ccc(O)c(F)c1 (stereo not given)
38.8

---

Molecular target: Estrogen receptor (Bos taurus) (UniProt Q9XSB5+P49884)
Assay: Relative binding affinity for calf uterine estrogen receptor by 17-beta-[3H]-estradiol competition.
Format: protein assay
Endpoint: relative binding affinity (RBA)
No unit in the answer, please; the number alone is enough.

Look over these answered cases.
CCc1cc(C(CC)C(CC)c2ccc(O)c(CC)c2)ccc1O (stereo unspecified) :: 1.2
CCC(c1ccc(O)cc1Cl)C(CC)c1ccc(O)cc1Cl (stereo unspecified) :: 2.2

State, in one line, measured relative binding affinity (RBA) of CCC(c1ccc(O)c([N+](=O)[O-])c1)C(CC)c1ccc(O)c([N+](=O)[O-])c1 (stereo unspecified)
0.14

State, in one line, measured relative binding affinity (RBA) of CCC(c1ccc(O)c(C)c1)C(CC)c1ccc(O)c(C)c1 (stereo unspecified)
8.1

State, in one line, measured relative binding affinity (RBA) of CCOCc1cc(C(CC)C(CC)c2ccc(O)c(COCC)c2)ccc1O (stereo unspecified)
0.18
